In this section we review reported TGI values for a set of compounds.
# Tested on: NCI-H226 lung
# METHOD SUMMARY: NCI tumour cell line growth inhibition, 48 h

{"COMPOUND": "Nc1nc(Cl)cc(NCC2(CO)CCCCC2)n1", "TGI": "> 100 µM"}
{"COMPOUND": "C=CC(=O)N[C@@H]1CN(c2nc(Nc3cn(C)nc3OC)c3ncn(C)c3n2)C[C@H]1F", "TGI": "> 100 µM"}
{"COMPOUND": "COc1ccc(C=Nc2ccc(-c3nc4ccccc4s3)cc2)cc1OC", "TGI": "85.4 µM"}
{"COMPOUND": "CC(C)C[S+]1C2=C([O-])CC(C)(C)CC2=Nc2ccccc21 (stereo not drawn)", "TGI": "> 100 µM"}
{"COMPOUND": "CC(=O)N1C(C(=O)NN2CCOCC2)CSC1c1ccccc1 (stereo not drawn)", "TGI": "> 100 µM"}
{"COMPOUND": "O=C(CCC(=O)Nc1ccccc1C(F)(F)F)N/N=C1\\C(=N\\NC(=O)CCC(=O)Nc2ccccc2C(F)(F)F)C(c2ccc3c(c2)OCO3)Oc2ccccc21 (stereo not drawn)", "TGI": "> 100 µM"}
{"COMPOUND": "O=C(CCc1nc(=S)[nH][nH]1)Nc1cc(Cl)ccc1Cl", "TGI": "> 100 µM"}
{"COMPOUND": "O=C(NN1C(=O)C(Cl)C1c1cccc(O)c1)c1ccccc1O (stereo not drawn)", "TGI": "> 100 µM"}
{"COMPOUND": "CC(=O)O[C@@H]1[C@H](OC2CCCCC2(c2ccccc2)c2ccccc2)O[N+]([O-])=CC12CCCCC2 (stereo partly drawn)", "TGI": "27.8 µM"}
{"COMPOUND": "Cc1ccc(Nc2c3c(c(C#N)c4nc5ccccc5n24)CCCC3)cc1", "TGI": "62 µM"}
{"COMPOUND": "C/C=C/CC(C(=O)OCC)(N(C)C(=O)OC(C)(C)C)S(=O)(=O)c1ccc(C)cc1 (stereo not drawn)", "TGI": "> 100 µM"}
{"COMPOUND": "COc1ccc(C(c2ccccc2C(=O)O)c2ccc(OC)c3ccccc23)c2ccccc12", "TGI": "63.5 µM"}
{"COMPOUND": "CCO/C(O)=C(/C(=N)N1CCOCC1)C(=O)Nc1cccc(C(F)(F)F)c1", "TGI": "> 100 µM"}
{"COMPOUND": "CCN(CC)CC1CCCCN1CC(=O)N1c2cc(Cl)ccc2NC(=O)CC1C (stereo not drawn)", "TGI": "> 100 µM"}
{"COMPOUND": "CC(=N/NC(=S)N1CCCCCC1)/C(C)=N\\NC(=S)N1CCCCCC1", "TGI": "9.23 µM"}
{"COMPOUND": "CC12NC(=C(C#N)C#N)C(C#N)=C3NC(N)=C(C#N)C(=C31)Oc1ccccc12 (stereo not drawn)", "TGI": "> 100 µM"}
{"COMPOUND": "CCN(CC)CCNc1c2ccccc2nc2cccc([N+](=O)[O-])c12", "TGI": "0.0553 µM"}
{"COMPOUND": "COc1ccccc1N1CCN(CCCCNC(=O)c2ccc([N+](=O)[O-])o2)CC1", "TGI": "29.4 µM"}
{"COMPOUND": "COc1ccc(-c2nn(-c3cccc(Cl)c3)cc2/C=C2\\NC(=S)N(c3ccc(Cl)cc3)C2=O)cc1", "TGI": "9.36 µM"}
{"COMPOUND": "COc1ccc(/C=C2/N=C(N/N=C\\C(O)C(O)C(O)CO)NC2=O)cc1 (stereo not drawn)", "TGI": "> 100 µM"}
{"COMPOUND": "CN1CCN(CCCOc2cccc3nc(Nc4cc(Cl)cc(Cl)c4)ccc23)CC1", "TGI": "4.04 µM"}
{"COMPOUND": "CCOC(=O)/C=C/n1c2ccccc2c(=O)c2cc(OC)ccc21", "TGI": "> 100 µM"}
{"COMPOUND": "COc1ccc(-n2cc(-c3cc(OC)c(OC)c(OC)c3)nc2SCc2ccc(Cl)cc2)cc1OC", "TGI": "> 100 µM"}
{"COMPOUND": "COc1ccccc1C1C2=C(COC2=O)Oc2cc3c(cc21)OCO3 (stereo not drawn)", "TGI": "> 100 µM"}
{"COMPOUND": "O=C(Nc1ccccc1)c1cc2ccccc2c(N=Nc2cccc([N+](=O)[O-])c2)c1O", "TGI": "> 100 µM"}
{"COMPOUND": "COC(=O)C(C(=O)C(=O)Nc1ccc(C)cc1)c1nc2ccc([N+](=O)[O-])cc2[nH]c1=O (stereo not drawn)", "TGI": "> 100 µM"}
{"COMPOUND": "Cc1cc(C)cc(Nc2nnc3n2S(=O)(=O)c2cc(C)c(Cl)cc2S3)c1", "TGI": "30.5 µM"}
{"COMPOUND": "O=c1cc(-c2ccc(Cl)cc2)[nH]c2ccccc12", "TGI": "> 100 µM"}
